study-target: StrepII-tagged ROR1-extracellular domain (human, UniProt Q01973)
Sequence (Q01973 other isoform, or with tags, fused parts or gaps): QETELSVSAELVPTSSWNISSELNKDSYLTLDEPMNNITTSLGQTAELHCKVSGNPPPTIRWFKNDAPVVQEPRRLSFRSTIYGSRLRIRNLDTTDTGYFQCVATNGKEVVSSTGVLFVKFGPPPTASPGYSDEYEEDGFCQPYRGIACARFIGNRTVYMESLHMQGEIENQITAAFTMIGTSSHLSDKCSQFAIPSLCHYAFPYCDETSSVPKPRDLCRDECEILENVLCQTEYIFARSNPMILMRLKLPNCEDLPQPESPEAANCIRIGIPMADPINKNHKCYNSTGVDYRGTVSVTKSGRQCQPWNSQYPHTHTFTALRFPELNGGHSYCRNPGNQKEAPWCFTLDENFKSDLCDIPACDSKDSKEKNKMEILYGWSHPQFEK
assay-method-text: SPR (Biacore T200), IgG from HEK293T supernatant captured by anti-human Fc, ROR1-strep as analyte, 1:1 model
measured-endpoint: pKd
One number for each entry, as −log10 of the molar value.

Below, each entry is followed by its recorded pKd result.
huR12_7, humanized from R12 (antibody, V domains shown) VH: QVQLVESGGELVQPGGSLTLSCKASGFDFSAYYMSWVRQAPGKGLEWIATIYPSSGKTYYAASVQGRFTISADNAKNTVSLQMNSLTAADTATYFCARDSYADDGALFNIWGKGTLVTVSS VL: QLVLTQSPSVSAALGSSAKITCTLSSAHKTDTIDWYQQLAGQAPRYLMYVQSDGSYEKRSGVPDRFSGSSSGADRYLIISSVQADDEADYYCGADYIGGYVFGGGTQLTVLG : 9.96
huR12_11, humanized from R12 (antibody, V domains shown) VH: QVQLVESGGALVQPGGSLTLSCKASGFDFSAYYMSWVRQAPGKGLEWIATIYPSSGKTYYAASVQGRFTISADNAKNTVYLQMNSLTAADTATYFCARDSYADDGALFNIWGQGTLVTVSS VL: QLVLTQSPSVSAALGSSAKITCTLSSAHKTDTIDWYQQLAGQAPRYLMYVQSDGSYEKRSGVPDRFSGSSSGADRYLIISSVQADDEADYYCGADYIGGYVFGGGTQLTVG : 10.08
huR12_16, humanized from R12 (antibody, V domains shown) VH: QVQLVESGGELVTPGGSLTLSCKASGFDFSAYYMSWVRQAPGKGLEWIASIYPSSGKTYYAAAVQGRFTISADNAKNTVYLQMNSLTAADTATYFCARDSYADDGALFNIWGQGTLVTVSS VL: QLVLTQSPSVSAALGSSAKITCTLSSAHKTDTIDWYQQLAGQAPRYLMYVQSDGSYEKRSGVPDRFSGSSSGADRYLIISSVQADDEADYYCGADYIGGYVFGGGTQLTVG : 10.04
Chimeric mAb R12 (antibody, V domains shown) VH: QEQLVESGGRLVTPGGSLTLSCKASGFDFSAYYMSWVRQAPGKGLEWIATIYPSSGKTYYATWVNGRFTISSDNAQNTVDLQMNSLTAADRATYFCARDSYADDGALFNIWGPGTLVTISS VL: ELVLTQSPSVSAALGSPAKITCTLSSAHKTDTIDWYQQLQGEAPRYLMQVQSDGSYTKRPGVPDRFSGSSSGADRYLIIPSVQADDEADYYCGADYIGGYVFGGGTQLTVT : 8.99

Prompt: Please look up its pKd: huR12_4, humanized from R12 (antibody, V domains shown) VH: QVQLVESGGELVQPGGSLTLSCKASGFDFSAYYMSWVRQAPGKGLEWIATIYPSSGKTYYAASVQGRFTISADNAKNTVYLQMNSLTAADTATYFCARDSYADDGALFNIWGKGTLVTVSS VL: QLVLTQSPSVSAALGSSAKITCTLSSAHKTDTIDWYQQLAGQAPRYLMYVQSDGSYEKRSGVPDRFSGSASGADRYLAISRVQADDEADYYCGADYIGGYVFGGGTQLTVLG
Completion: 10.04
